Hello, the source for this data is PubChem BioAssay AID1259343, in case you need it.

- Experiment: Mycobacterium tuberculosis growth inhibition, primary screen (AID 1259343)
- Assay setup: at 10 µM
The campaign covered roughly 6,200 compounds. About 2,900 (47%) were called active. Cut-off read from the data, not from the text of the source: active = inhibition above about 50%; inactive = the rest. So high a share suggests a set chosen from earlier hits. This is one part of the list.
Bench note: report the call from t = active, f = inactive

Record lookup: outcome of this test for `COc1ccc(-c2nnc(SCC(=O)NC(C)(C)C)o2)cc1` ?
f

What did this assay record as the result for `O=c1c(Oc2ccccc2)coc2cc(O)ccc12` ?
t

Identify the outcome logged in this assay for the compound shown: `Cc1cc(C)cc(-c2nnc(SCc3cc(C)on3)o2)c1`
f

Recorded test call requested for `CCOC(=O)c1cc(-c2ccccc2)sc1NC(=O)CC(=O)OC`
t

Which outcome was entered for the compound `CCCc1cccc(C)c1O` in this test?
f

For `Cc1ccc(-c2nnc(SCc3c(C)noc3C)o2)cc1` , which call appears in the assay record?
t

###

- Experiment: Mycobacterium tuberculosis growth inhibition, primary screen (AID 1259343)
- Assay setup: at 10 µM, hits give high values
Hit rate of the full screen: of about 6,200 compounds, about 2,900 (47%) were called active. So high a share suggests a set chosen from earlier hits. This is one part of the list.
Mark 0 (no) for inhibition values under 70%, and 1 (yes) for everything at or above.

In plain terms: is recorded inhibition at least 70% for `O=S(=O)(NC1CCCCCC1)c1ccc(Cl)cc1` ?
1 (yes)

Decide: is the reported value of inhibition for `O=S(=O)(NC1CCCCCC1)c1ccc(F)c(F)c1` equal to or greater than 70%?
0 (no)

Entry `O=C(Nc1cccc(-c2cccc(Cl)c2)c1)C1CCN(Cc2ccncc2)CC1` : is its inhibition no less than 70%?
1 (yes)

Does inhibition meet or surpass 70% for `O=C(COC(=O)c1ccco1)Nc1ccc2ccccc2c1` ?
0 (no)

###

I'd appreciate it if you could supply inhibition values for the items below.
- Experiment: Mycobacterium tuberculosis growth inhibition, primary screen (AID 1259343)
- Assay setup: at 10 µM, hits give high values
Screen size: about 6,200 compounds; about 2,900 (47%) were called active. So high a share suggests a set chosen from earlier hits. This is one part of the list.
The figure you give is taken to be in %; do not add the unit.

Requested read-out: inhibition. Entry: `O=[N+]([O-])c1c(-n2cccn2)nn(-c2ccccc2)c1C(Cl)Cl`
101

Quick one: inhibition of `NC(=N/N=C\c1ccc(Cl)cc1)N/N=C\c1ccc(Cl)cc1` ?
101

Could you tell me which inhibition is on file for `CC(C)c1ccc(-c2nnn(CC(=O)NC(C)(C)C)n2)cc1` ?
4.54

Consider the compound shown here: `O=c1[nH]c(CN2CCN(c3ccccc3F)CC2)nc2ccsc12` What is its recorded inhibition?
13.7

Which measured inhibition value corresponds to Cc1cc(Cl)ccc1OC(C)c1nnc(SCCC2CCCCC2)o1 (stereo not drawn) ?
10.5

Request the reported inhibition associated with `CC(C)c1ccc(-c2nnn(CC(=O)c3ccc(O)cc3)n2)cc1`
55.7

What measured inhibition goes with `CCOC(=O)C(C#N)=Cc1cn(CCC#N)nc1-c1ccc(Br)cc1` ?
-13.1

# lookup: inhibition of `Nc1nc2c3ccccc3nc(-c3ccccc3)n2n1`
83.3

Item under review: O=C(O)c1ccc2c(c1)C1C=CCC1C(c1ccc(Br)cc1)N2 (stereo not drawn) . Reported inhibition?
66.8

Entry `Cc1cc(=O)[nH]c(-n2nc(C)cc2NC(=O)/C=C/c2ccc3c(c2)OCO3)n1` : reported inhibition = ?
101

Given `N#Cc1nc(COc2ccc(Cl)cc2)oc1N1CCCC1` , state its recorded inhibition.
92.6

// returns reported inhibition for input `O=C(Nc1ccc(N2CCCCC2)cc1)c1ccc(Cl)s1`
94

Given the compound `CC(C)NC(=O)CCC1CCCCC1` , what is its reported inhibition?
103

###

- Experiment: Mycobacterium tuberculosis growth inhibition, primary screen (AID 1259343)
- Assay setup: at 10 µM, hits give high values
About 2,900 (47%) of roughly 6,200 compounds were called active. So high a share suggests a set chosen from earlier hits. The list shows a part of the results.
Each record gets a class by inhibition: lower (below 30%), middle (30% to below 60%), upper (60% or more)

Where would CCCC(C)NC(=O)CSc1nnc(-c2ccc(Cl)cc2)o1 (stereo unspecified) land among the classes by reported inhibition?
upper

Into which bin does this compound go? `N=c1oc2c([N+](=O)[O-])cc(N3CCCCC3)cc2cc1-c1nc2ccccc2s1`
lower

State the class of the compound shown: `CC(C)C(=O)N1CCC(NC(=O)c2cc(C3CC3)on2)CC1`
lower

Category lookup for the compound `Cc1nc2sc3c(c2c(=O)o1)CCCCC3`
upper

Which category fits this record: `Fc1ccc(OCc2noc(-c3cccs3)n2)c(Br)c1`
lower

For this compound, which bin applies? `Cc1nc(NC(=O)C2CC2)sc1Cc1ccccc1Cl`
middle

Hello team, could you let me know which band the following compound falls into: `O[C@@H]1CNCC[C@H]1CNCc1cccc(Oc2cccc(C(F)(F)F)c2)c1`
lower

Form field 'band' for `FC(F)(F)c1ccccc1Oc1ccc2c(C3CC3)noc2n1`
upper

Please report the category associated with `N[C@@H](CCCCNC(=O)c1cccnc1)C(=O)NNc1ccc(Cl)cc1` , nothing else.
upper

GET /class?item= `CCOc1cc(Cl)ccc1NC(=O)Nc1cccnc1`
middle

Category of `CC(C)(C)c1nc2sc3c(c2c(=O)o1)CCCC3` , please.
lower

# bin lookup: classify `Fc1cccc(Oc2ccc3c(C4CC4)noc3n2)c1` by its inhibition
upper

Textbook exercise: identify the category of the compound given here, CCC1=NOC(c2nc3sc(C(C)(C)C)cc3c(=O)[nH]2)C1 (stereo unspecified) , according to its measured value.
lower

Form field 'band' for `CNC(=O)Cc1noc(-c2cc3c(s2)CCCCCC3)n1`
middle

Determine which band this compound sits in: CC(NC(=O)c1cc(C2CC2)on1)c1cc(Cl)ccc1Cl (stereo unspecified)
middle

// bin(item) where item = `COc1ccccc1OCCCOc1ccc(C)cc1Br`
middle

Entry `O=C(Nc1ccccc1N1CCCC1)c1cc(C2CC2)on1` belongs to which category?
middle

Which of the defined bands does the recorded inhibition of `C=CCNC(=O)CSc1nnc(-c2cccs2)o1` sit within?
upper

Class label required: CCCC(C)NC(=O)COc1ncnc2scc(-c3ccc(C)cc3)c12 (stereo unspecified)
middle

Category of CCOc1ccc(N=C2NC(=O)C(CC(=O)c3ccccc3)S2)cc1 (stereo unspecified) , please.
middle

###

- Experiment: Mycobacterium tuberculosis growth inhibition, primary screen (AID 1259343)
- Assay setup: at 10 µM, hits give high values
Screen size: about 6,200 compounds; about 2,900 (47%) were called active. The set was probably picked from earlier hits. The list shows a part of the results.
Assign class by inhibition: not lower than 50% means Met; lower than 50% means Not met.

API: above_or_equal(metric=inhibition, cutoff=50%) for item `COc1ccc(CN(C)C(=O)Nc2ccc(C)cc2)c(OC)c1`
Not met

Confirm if inhibition reported for the compound `CC(C)CC(=O)NC(=S)NCc1ccccc1` is 50% or above.
Met

Exam item: decide whether the reported inhibition for `O=C(NC(=S)NCCc1ccccc1)C1CCCCC1` is at least 50%.
Met

Check the entry `Cc1ccc(-n2cc(O)nn2)cc1` : does inhibition equal or exceed 50%?
Met

Does S=C(NCCc1ccccc1)NC1CCSc2ccccc21 (stereo not given) have a reported inhibition of at least 50%?
Not met

###

- Experiment: Mycobacterium tuberculosis growth inhibition, primary screen (AID 1259343)
- Assay setup: at 10 µM
Hit rate of the full screen: of about 6,200 compounds, about 2,900 (47%) were called active. Cut-off read from the data, not from the text of the source: active = inhibition above about 50%; inactive = the rest. The set was probably picked from earlier hits. Some of the results follow.
Tick one outcome: Yes for active, No for inactive

So what was the verdict on `CCN1CCc2c(sc(NC(=O)C(C)(C)C)c2-c2nc3ccccc3s2)C1` in this test?
Yes

For `CSc1ccc(NC(=O)c2cn[nH]n2)cc1Cl` , what call appears in the results of this test?
Yes

For this molecule, state the assay outcome: `O=C(Cc1cc(-c2cc3ccccc3o2)on1)Nc1cccc(F)c1`
No

###

- Experiment: Mycobacterium tuberculosis growth inhibition, primary screen (AID 1259343)
- Assay setup: at 10 µM
In all, about 6,200 compounds went through this assay and about 2,900 (47%) were called active. Cut-off read from the data, not from the text of the source: active = inhibition above about 50%; inactive = the rest. So high a share suggests a set chosen from earlier hits. Some of the results follow.
Field 'call' accepts 1.0 for active, 0.0 for inactive

What outcome does the record of this test show for `CCN=c1scc(-c2ccc(Br)s2)n1N=CC1CCCCC1` ?
0.0

Assay outcome for CC1CCc2c(sc3nc(C(C)C)nc(N4CCN(C(=O)Nc5c(Cl)cccc5Cl)CC4)c23)C1 (stereo not given) : what was it?
0.0

Query: recorded result category for `C=CCN=c1scc(-c2ccc(OC(F)F)cc2)n1N=Cc1ccc[nH]1` in this test
0.0

// param item: `CN=c1scc(-c2ccccc2)n1N=Cc1cccc(C(F)(F)F)c1` ; yields the recorded call
0.0

Short answer needed: outcome of this test for CC(Nc1ccc(C#N)cn1)c1ccccc1Br (stereo not given) ?
1.0

Hey, what did the test say about `O=C(Cc1ccsc1)N1CCN(Cc2cccc(-c3noc(-c4ccccc4)n3)c2)CC1` ?
0.0

Give the logged outcome of this assay for the following compound: Cc1nc(N2CCCCC2)c2c3c(sc2n1)CC(C)CC3 (stereo not given)
0.0

GET /call?item= `CCN(C(=O)c1cccc(Br)c1C)c1ccccc1` returns the recorded outcome of this test.
0.0

What did this assay record as the result for `O=C(c1cccc(OC(F)F)c1)N1CCN(Cc2ccc(-c3noc(-c4ccco4)n3)cc2)CC1` ?
1.0

I'd appreciate the recorded outcome for `C(=Nn1c(-c2ccccc2)csc1=NCCc1ccccc1)c1ccccn1` from this test.
0.0

Lab log entry: `O=C(NC1CC1)c1ccc(Oc2ccc(Br)cc2)nc1` — outcome as called in the assay?
0.0

Please share the test call associated with `c1ccc(-c2cc(CSc3nnnn3C3CC3)no2)cc1` .
1.0

Look up the recorded call for `COc1ccc(C=Nn2c(-c3ccc(Cl)cc3)csc2=N)cc1` in this test.
1.0

// outcome(item) with item = `COCCN=c1scc(-c2ccc(OC(F)F)cc2)n1N=Cc1ccc(OC)cc1`
1.0

Given `COCCN=c1scc(-c2ccc(Br)cc2)n1N=Cc1ccc(F)cc1` , state the outcome it received in this test.
0.0
